Origin of values: the RNAGym collection of RNA variant scans (doi:10.1002/anie.201605470)

B1: Osa-1-4 twister ribozyme (parent)
chain: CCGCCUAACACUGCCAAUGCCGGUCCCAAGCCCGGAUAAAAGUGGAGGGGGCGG

- Variants of: B1
- assay-overview: self-cleavage, relative activity (ratio to wild type); higher = more cleavage; co-transcriptional
Our labelling divides records by self-cleavage into ranges: low-valued = under 0.05, mid-valued = from 0.05 up to 0.3, high-valued = 0.3 and over

Inquiry: // bin(item) where item = C9G G48C
Reply text: mid-valued

Inquiry: Quick one: C14U G34C
Reply text: mid-valued

Inquiry: What would you report for A29U A36G ?
Reply text: mid-valued

Inquiry: Then this variant: G45C G48A
Reply text: low-valued

Inquiry: Also A16U G35A ?
Reply text: high-valued

Inquiry: Also, C32A U12G please.
Reply text: mid-valued

Inquiry: Also A10G A40G ?
Reply text: high-valued

Inquiry: Now this one: C20A U37C
Reply text: high-valued

Inquiry: Okay, and G35C U18C ?
Reply text: high-valued

Inquiry: Thanks! And G48U G49C ?
Reply text: low-valued

Inquiry: Cool, now A8U C15A
Reply text: mid-valued
